Where do these numbers come from? They come from the supplement of paper PMC10567573.

B1: TOR1AIP2 (parent)
chain: AGQEGEDTLRRRLLAPEAGSHPQQ

# Variants of: B1
# procedure_details: protein stability index of a GFP-peptide fusion (GPS, HEK-293T) (PSI 1-6); higher = more stable;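 also: lentivirally expressed fusions sorted by FACS into six bins by GFP to DsRed ratio, PSI derived from sequencing read proportions per bin multiplied by bin number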
# conditions_used: c terminus: a fixed tail appended
Kindly state protein stability index for each of the entries shown.
Give bare numbers.

Examples with answers:
mutation_code: Q24E
protein stability index: 2.52
//
mutation_code: E17K
protein stability index: 3.86
//
mutation_code: L9Q
protein stability index: 4.56
//
mutation_code: A15F
protein stability index: 4.87
//
mutation_code: L9W
protein stability index: 2.41
//
mutation_code: S20K
protein stability index: 1.97
//
mutation_code: A18G
protein stability index: 3.92
//
mutation_code: L14P
protein stability index: 5.93

Hi, could you look up protein stability index for each item in my list?
1. G5M
2. A18I
3. P22C
4. L13Q

result:
1. 1.97
2. 1.9
3. 2.43
4. 5.15

Hi, could you look up protein stability index for each item in my list?
1. R12Y
2. L9K
3. L9A
4. T8P
5. D7K
6. P22N
7. A18W
8. H21E

result:
[2.3, 3.87, 4.4, 3.37, 2.57, 3.24, 2.21, 1.73]

Hi, could you look up protein stability index for each item in my list?
1. P16L
2. A18K

result:
1: 5.32; 2: 3.5
